- Tested on: Pseudoperonospora cubensis
- TEST_DESCRIPTION: Cucumber Downy Mildew (PSPECU), foliar spray, percent disease control
- Assay type: in vivo
- CONDITION_NOTES: foliar, read-out: PSPECU percent control
Below: a set of entries, each annotated with reported pest or weed control at 200 µg/mL.

A selection of reference data follows.
FC(F)(F)c1cccc(-c2ccc(CCNc3ncnc4nccnc34)cc2)c1    50 to 79%
Cc1c(CCNc2ncnc3nccnc23)ccc(Oc2cncc(Cl)c2C#N)c1C    80 to 100%
COc1cccc(Oc2ccc(CCNc3ncnc4nccnc34)cc2)n1    80 to 100%
c1ccc(COc2ccc(CCNc3ncnc4nccnc34)cc2)cc1    80 to 100%

# get_value(readout='pest or weed control at 200 µg/mL', item= CC(Nc1ncnc2nccnc12)c1ccc(Oc2ccc(C(F)(F)F)cn2)cc1 (stereo not drawn) )
80 to 100%

Note, next up: `Fc1cc(C(F)(F)F)cnc1Oc1ccc(CCNc2ncnc3nccnc23)cc1`
80 to 100%

Note, next up: `Oc1cccc(OCCNc2ncnc3nccnc23)c1`
80 to 100%

Note, next up: `Fc1cnc(C(F)(F)F)c(F)c1Oc1ccc(CCNc2ncnc3nccnc23)cc1`
80 to 100%

Note, next up: `Cc1cnc2ncnc(NCCc3ccc(Oc4cncc(Cl)c4C#N)cc3)c2n1`
0 to 49%

Note, next up: `Clc1nccc(Oc2ccc(CCNc3ncnc4nccnc34)cc2)n1`
80 to 100%

Note, next up: `Oc1ccc(OCCNc2ncnc3nccnc23)cc1`
0 to 49%

Note, next up: CC(Sc1ncnc2nccnc12)c1ccc(C#N)cc1 (stereo not drawn)
0 to 49%
